# Kd per entry
Target: T1, His-tagged CEACAM1 (human, UniProt P13688 35-428)
T1 construct: 45 kDa SPR analyte; also called CEACAM1-HIS; CEACAM1 analyte
T1 sequence: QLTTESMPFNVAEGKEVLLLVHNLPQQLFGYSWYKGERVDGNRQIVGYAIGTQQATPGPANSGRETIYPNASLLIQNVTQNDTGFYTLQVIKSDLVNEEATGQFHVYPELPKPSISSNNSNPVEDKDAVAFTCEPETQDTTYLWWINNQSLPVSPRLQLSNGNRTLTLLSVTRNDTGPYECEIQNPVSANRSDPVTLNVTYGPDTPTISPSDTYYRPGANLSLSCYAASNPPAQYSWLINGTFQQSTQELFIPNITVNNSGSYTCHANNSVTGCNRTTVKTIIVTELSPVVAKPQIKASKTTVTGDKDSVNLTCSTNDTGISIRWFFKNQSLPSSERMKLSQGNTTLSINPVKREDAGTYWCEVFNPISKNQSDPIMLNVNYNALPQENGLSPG
Test: SPR single-cycle, purified IgG captured
readout kind: Kd (nM)

{"binder": "8H3_9B3/Vκ8 S29A (antibody, IgG4, V domains shown, IgG4 (S241P), kappa) VH: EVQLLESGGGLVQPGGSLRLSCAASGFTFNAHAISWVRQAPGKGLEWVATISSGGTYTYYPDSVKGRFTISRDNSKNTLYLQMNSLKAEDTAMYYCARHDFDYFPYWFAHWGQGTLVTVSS VL: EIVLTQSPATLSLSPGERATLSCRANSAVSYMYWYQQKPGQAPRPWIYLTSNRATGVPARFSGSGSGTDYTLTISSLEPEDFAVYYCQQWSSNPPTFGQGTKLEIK", "readout kind": "Kd", "unit text": "nM", "value measured": 67}
{"binder": "VH1/Vκ8 S29A (antibody, IgG4, V domains shown, IgG4 (S241P), kappa; also called Parent; Parent (VH1/Vκ8 S29A)) VH: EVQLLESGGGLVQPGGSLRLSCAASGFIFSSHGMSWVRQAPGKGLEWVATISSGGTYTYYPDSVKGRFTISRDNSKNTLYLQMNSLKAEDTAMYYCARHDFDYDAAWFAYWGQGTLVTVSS VL: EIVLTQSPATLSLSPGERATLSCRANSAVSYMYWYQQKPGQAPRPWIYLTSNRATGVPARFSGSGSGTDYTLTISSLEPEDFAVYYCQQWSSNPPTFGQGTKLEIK", "readout kind": "Kd", "unit text": "nM", "value measured": 480}
{"binder": "CP09B03/CP08E05 (antibody, IgG4, V domains shown, IgG4 (S241P), kappa) VH: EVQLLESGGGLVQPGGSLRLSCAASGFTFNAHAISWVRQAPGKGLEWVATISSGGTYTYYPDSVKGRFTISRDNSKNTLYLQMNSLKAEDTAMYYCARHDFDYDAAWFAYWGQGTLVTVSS VL: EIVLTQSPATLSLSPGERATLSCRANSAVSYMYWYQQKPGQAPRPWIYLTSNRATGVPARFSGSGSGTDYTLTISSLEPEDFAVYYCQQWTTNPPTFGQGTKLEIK", "readout kind": "Kd", "unit text": "nM", "value measured": 90}
